Here, each record is paired with measured pIC50 data.
# Target desc: T1, human IL-13 (human, UniProt P35225 35-146, biotinylated on the Biacore chip)
# T1 construct: also called hIL-13; recombinant human IL-13
# T1 sequence (P35225 35-146 limits assumed): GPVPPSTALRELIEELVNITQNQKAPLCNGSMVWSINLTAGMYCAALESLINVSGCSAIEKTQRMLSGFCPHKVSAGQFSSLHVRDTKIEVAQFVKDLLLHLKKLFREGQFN
# Test details: IL-13 receptor I RBA: FMAT beads, IL-13R alpha1/Fc
# Protocol: The plate was incubated for seven hours before being read in the 8200 cellular detection system (Applied Biosystems).
pIC50: −log10 of the molar value.
Assay endpoint: pIC50

- Binder: "DOM10-275 (other, VH dAb) VH: EVQLLESGGGLVQPGGSLRLSCAASGFTFDREEMDWVRQAPGKGLEWVSTISPSGRKTYYADSVKGRFTISRDNSKNTLYLQMNSLRAEDTAVYYCAKHGTGFDYWGQGTLVTVSS"
  Assay endpoint: "pIC50"
  Number: 6.00
- Binder: "DOM10-416 (other, VH dAb) VH: EVQLLESGGGLVQPGGSLRLSCAASGFTFKGSEMDWVRQAPGKGLEWVSTISADGRETYYADSVKGRFTISRDNSKNTLYLQMNSLRAEDTAVYYCAKSYTSFDYWGQGTLVTVSS"
  Assay endpoint: "pIC50"
  Number: 5.22
- Binder: "DOM10-176 (other, Vk dAb) VL: DIQMTQSPSSLSASVGDRVTITCRASQWIGPYLNWYQQKPGKAPKLLIYMGSYLQSGVPSRFSGSGSGTDFTLTISSLQPEDFATYYCQQDLYPPYTFGQGTKVEIKR"
  Assay endpoint: "pIC50"
  Number: 7.00
- Binder: "DOM10-276 (other, VH dAb) VH: EVQLLESGGGLVQPGGSLRLSCAASGFTFRDYEMDWVRQAPGKGLEWVSSIGPSGSETYYADSVKGRFTISRDNSKNTLYLQMNSLRAEDTAVYYCAKAYTSFDYWGQGTLVTVSS"
  Assay endpoint: "pIC50"
  Number: 5.52
- Binder: "DOM10-273 (other, VH dAb) VH: EVQLLESGGGLVQPGGSLRLSCAASGFTFELEEMDWVRQAPGKGLEWVSSISGSGGSTYYADSVKGRFTISRDNSKNTLYLQMNSLRAEDTAVYYCAKAYTGFDYWGQGTLVTVSS"
  Assay endpoint: "pIC50"
  Number: 6.22
- Binder: "DOM10-53 (other, VH dAb) VH: GVQLLESGGGLVQPGGSLRLSCAASGFTFAWYDMGWARQAPGKGLEWVSSIDDSGTQTYYADSVKGRFTISRDNSKNTLYLQMNSLRAEDTAVYYCATAERDDTFDYWGQGTLVTVSS"
  Assay endpoint: "pIC50"
  Number: 6.82
